The reported numbers originate from patent US11066414B2.

Tgt: Human Cot (Homo sapiens (Human))
Assay notes: High Throughput Cot Biochemical Assay
Experimental setup: IC50 HTRF, Cot HTRF (TR-FRET) biochemical assay
pIC50: −log10 of the molar value.
Measured property: pIC50

- Molecular string: "N#CCn1cc([C@@H](Nc2cc(Cl)c3ncc(C#N)c(Nc4ccc(F)c(Cl)c4)c3c2)c2cscn2)nn1"
  pIC50: 8.15

a. Cc1nc(F)ccc1[C@H](Nc1cc(C#N)c2ncc(C#N)c(N[C@H](C)C(C)(C)C)c2c1)c1cn(C2(C(F)(F)F)CC2)nn1
b. [2H][C@](Nc1cc(Cl)c2ncc(C#N)c(Nc3cccc(Cl)c3OC)c2c1)(c1ccc(F)nc1)c1cn(C2CC2)nn1
INPUT: Of a and b , which shows the smaller pIC50 value? Provide the label of your selected option as the answer.
OUTPUT: a
(a: 8.40, b: 8.70)

---

Tgt: Human Cot (Homo sapiens (Human), UniProt P41279)
Sequence (P41279 30-397): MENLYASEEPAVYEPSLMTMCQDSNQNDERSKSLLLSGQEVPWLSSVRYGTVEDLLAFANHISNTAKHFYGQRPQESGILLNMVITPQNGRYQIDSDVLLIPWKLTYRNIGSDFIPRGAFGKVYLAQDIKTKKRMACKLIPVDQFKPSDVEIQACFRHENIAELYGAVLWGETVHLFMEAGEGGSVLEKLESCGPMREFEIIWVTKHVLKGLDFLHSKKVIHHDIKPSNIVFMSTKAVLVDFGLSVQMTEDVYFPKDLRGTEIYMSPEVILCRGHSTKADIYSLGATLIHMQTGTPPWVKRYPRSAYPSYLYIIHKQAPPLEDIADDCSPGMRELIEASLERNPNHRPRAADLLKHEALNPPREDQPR
Assay notes: High Throughput Cot Biochemical Assay
Experimental setup: IC50 HTRF, Cot HTRF (TR-FRET) biochemical assay
pIC50: −log10 of the molar value.
Measured property: pIC50

- Compound: "Cn1ccc2c([C@H](Nc3cc(Cl)c4ncc(C#N)c(NCC(C)(C)C)c4c3)c3cn(C4CCC4)nn3)cccc2c1=O"
  Measured property: "pIC50"
  Result value: 8.70
- Compound: "CC(C)(C)CNc1c(C#N)cnc2c(Br)cc(N[C@H](c3cn(C4CC4)nn3)c3cccc4c3C(=O)NC4)cc12"
  Measured property: "pIC50"
  Result value: 8.52
- Compound: "CC(C)(C)N1CCC(n2cc([C@@H](Nc3cc(Cl)c4ncc(C#N)c(Nc5ccc(F)c(Cl)c5)c4c3)c3ccc4c(c3)NCC4)nn2)CC1"
  Measured property: "pIC50"
  Result value: 7.26
- Compound: "N#CCC[C@@H](Nc1c(C#N)cnc2c(C#N)cc(N[C@H](c3cn(C4CC4)nn3)c3csc4c3CCN(C3COC3)C4)cc12)c1ccccc1"
  Measured property: "pIC50"
  Result value: 9.00
- Compound: "Cc1nc(F)ccc1[C@H](Nc1cc(Cl)c2ncc(C#N)c(NCC(C)(C)C)c2c1)c1cn(C2(CO)CC2)nn1"
  Measured property: "pIC50"
  Result value: 8.52
- Compound: "Cn1ncc2cccc([C@H](Nc3cc(Cl)c4ncc(C#N)c(NCC(C)(C)C)c4c3)c3cn(C4(C(F)F)CC4)nn3)c21"
  Measured property: "pIC50"
  Result value: 8.15
- Compound: "CC(C)(C)CNc1c(C#N)cnc2c(Cl)cc(N[C@H](c3cn(C4(C)CC4)nn3)c3cccc4ncsc34)cc12"
  Measured property: "pIC50"
  Result value: 8.70
- Compound: "Cn1cc2c([C@H](Nc3cc(Cl)c4ncc(C#N)c(NCC(C)(C)C)c4c3)c3cn(C4CC4)nn3)cccc2n1"
  Measured property: "pIC50"
  Result value: 8.70

I. Cn1nnc2cccc([C@H](Nc3cc(Cl)c4ncc(C#N)c(NCC(C)(C)C)c4c3)c3cn(C4(C(F)F)CC4)nn3)c21
II. Cc1ncccc1[C@H](Nc1cc(Cl)c2ncc(C#N)c(Nc3cccc(Cl)c3F)c2c1)c1c[nH]nn1
III. Cc1ncsc1[C@H](Nc1cc(Cl)c2ncc(C#N)c(N[C@H](C)c3ccccc3)c2c1)c1c[nH]nn1
INPUT: Arrange the 3 entries by pIC50 so the values rise. Lab note: record answer as labels in requested order.
OUTPUT: III, II, I

---

Tgt: Human Cot (Homo sapiens (Human), UniProt P41279)
Assay notes: High Throughput Cot Biochemical Assay
Experimental setup: IC50 HTRF, Cot HTRF (TR-FRET) biochemical assay
Measured property: IC50 (nM)

- Compound: "N#Cc1cnc2c(Cl)cc(N[C@@H](c3ccc4c(c3)CNC4)c3c[nH]nn3)cc2c1Nc1ccc(F)c(Cl)c1"
  IC50 (nM): 58

1. [2H][C@](Nc1cc(Cl)c2ncc(C#N)c(NCC(C)(C)C)c2c1)(c1cccnc1)c1cn(C2CC2)nn1
2. N#CCC[C@@H](Nc1c(C#N)cnc2c(Cl)cc(N[C@H](c3cn(C4CC4)nn3)c3cccc4c3CNC4)cc12)c1ccccc1
INPUT: API: POST /compare with 1 and 2 ; response names the item with higher IC50. Provide the label of your selected option as the answer.
OUTPUT: 1
(1: 2 nM, 2: 1 nM)

---

Test system: TNFα
Assay notes: Cot Monocyte TNFα Cell Based Assay
Experimental setup: Homo sapiens, Monocyte, read-out: EC50 TNF, LPS-stimulated human monocytes, TNFα
pEC50: −log10 of the molar value.
Measured property: pEC50

A selection of reference data follows.
- Molecule: "Cc1nc(F)ccc1[C@H](Nc1cc(Cl)c2ncc(C#N)c(N[C@H]3CCOC3(C)C)c2c1)c1cn(C2(C(F)F)CC2)nn1 [Example 516]"
  pEC50: 7.47
- Molecule: "Cc1nc(F)ccc1[C@H](Nc1cc(C#N)c2ncc(C#N)c(NCC(C)(C)C)c2c1)c1cn(C(C)(C)C(F)F)nn1 [Example 590]"
  pEC50: 7.24
- Molecule: "CCN1CCC(n2cc([C@@H](Nc3cc(Cl)c4ncc(C#N)c(Nc5ccc(F)c(Cl)c5)c4c3)c3cccs3)nn2)CC1 [Example 380]"
  pEC50: 6.22
- Molecule: "Cc1ncccc1[C@H](Nc1cc(Cl)c2ncc(C#N)c(Nc3ccc(F)c(Cl)c3)c2c1)c1c[nH]nn1 [Example 272]"
  pEC50: 6.53
- Molecule: "Cc1ncccc1[C@H](Nc1cc(Cl)c2ncc(C#N)c(Nc3cccc(Cl)c3)c2c1)c1cn(C(C)C)nn1 [Example 225]"
  pEC50: 5.83
- Molecule: "N#Cc1cnc2c(Cl)cc(N[C@H](c3cn(C4CCNCC4)nn3)c3cncs3)cc2c1Nc1ccc(F)c(Cl)c1 [Example 375]"
  pEC50: 5.82

1. Cc1ncsc1[C@H](Nc1cc(Cl)c2ncc(C#N)c(Nc3cccc(Cl)c3F)c2c1)c1c[nH]nn1 [Example 251]
2. Cn1cncc1[C@H](Nc1cc(Cl)c2ncc(C#N)c(Nc3ccc(F)c(Cl)c3)c2c1)c1cn(C2CCN(C(C)(C)C)CC2)nn1 [Example 342]
INPUT: API: POST /compare with 1 and 2 ; response names the item with higher pEC50. Provide the label of your selected option as the answer.
OUTPUT: 1

---

Tgt: Human Cot (Homo sapiens (Human), UniProt P41279)
Assay notes: High Throughput Cot Biochemical Assay
Experimental setup: IC50 HTRF, Cot HTRF (TR-FRET) biochemical assay
pIC50: −log10 of the molar value.
Measured property: pIC50

- Compound: "CC(C)n1cc([C@@H](Nc2cc(Cl)c3ncc(C#N)c(N[C@@H](c4ccccc4)C(C)(C)O)c3c2)c2cccnc2)nn1 [Example 187]"
  Measured property: "pIC50"
  Result value: 7.17
- Compound: "N#Cc1cnc2c(Cl)cc(N[C@H](c3c[nH]nn3)c3csc4c3CCN(C3COC3)C4)cc2c1Nc1ccc(Cl)c(Cl)c1F [Example 222]"
  Measured property: "pIC50"
  Result value: 7.72

a. Cc1nc(F)ccc1[C@H](Nc1cc(Cl)c2ncc(C#N)c(NCC(C)(C)C)c2c1)c1cn(C2(CO)COC2)nn1 [Example 648]
b. CC(C)(C)CNc1c(C#N)cnc2c(Cl)cc(N[C@H](c3cn(C4CC4)nn3)c3cccc4cnccc34)cc12 [Example 443]
INPUT: API: POST /compare with a and b ; response names the item with higher pIC50. Provide the label of your selected option as the answer.
OUTPUT: b
(b: 9.00, a: 8.52)

---

Tgt: Human Cot (Homo sapiens (Human), UniProt P41279)
Assay notes: High Throughput Cot Biochemical Assay
Experimental setup: IC50 HTRF, Cot HTRF (TR-FRET) biochemical assay
pIC50: −log10 of the molar value.
Measured property: pIC50

A selection of reference data follows.
- Molecular string: "Cc1ccnc2cccc([C@H](Nc3cc(Cl)c4ncc(C#N)c(NCC(C)(C)C)c4c3)c3cn(C4(C(F)(F)F)CC4)nn3)c12"
  pIC50: 7.37
- Molecular string: "CC(C)(C)CNc1c(C#N)cnc2c(C#N)cc(N[C@H](c3cn(C4(C)CC4)nn3)c3cccc4ncsc34)cc12"
  pIC50: 9.00

1. [2H][C@](Nc1cc(C#N)c2ncc(C#N)c(NCC(C)(C)C)c2c1)(c1ccc(F)nc1)c1cn(C)nn1
2. N#CCC[C@@H](Nc1c(C#N)cnc2c(Cl)cc(N[C@H](c3cn(C4CC4)nn3)c3csc4c3CCN(C3COC3)C4)cc12)c1ccccc1
INPUT: API: POST /compare with 1 and 2 ; response names the item with higher pIC50. Provide the label of your selected option as the answer.
OUTPUT: 2
(2: 9.00, 1: 8.52)

P. CC(C)(C)CNc1c(C#N)cnc2c(Cl)cc(N[C@H](c3cn(C4CC4)nn3)c3cccn4nccc34)cc12
Q. Cn1cc2c([C@H](Nc3cc(Cl)c4ncc(C#N)c(NCC(C)(C)C)c4c3)c3cn(C4(C(F)(F)F)CC4)nn3)cccc2n1
R. Cc1nc(F)ccc1[C@H](Nc1cc(C#N)c2ncc(C#N)c(NCC(C)(C)C)c2c1)c1cn(C2(C(=O)N(C)C)CC2)nn1
S. CC(C)(C)N1CCC(n2cc([C@@H](Nc3cc(Cl)c4ncc(C#N)c(Nc5ccc(F)c(Cl)c5)c4c3)c3ccc4sccc4c3)nn2)CC1
INPUT: Arrange the 4 entries by pIC50 so the values rise. Lab note: record answer as labels in requested order.
OUTPUT: S, Q, R, P

A. CC(C)(C)CNc1c(C#N)cnc2c(C#N)cc(N[C@H](c3cn(C4(C)CC4)nn3)c3cccc4cnccc34)cc12
B. CC[C@@H](Nc1c(C#N)cnc2c(Cl)cc(N[C@H](c3c[nH]nn3)c3cccnc3C)cc12)c1ccccc1
INPUT: API: POST /compare with A and B ; response names the item with higher pIC50. Provide the label of your selected option as the answer.
OUTPUT: A
(A: 8.70, B: 8.40)
